Value source: ChEMBL document CHEMBL1201862

assay: cytotoxicity toward NIH3T3 fibroblasts, dose response, counter-screen, cell-based, ATP luminescence, mouse fibroblasts (AID 2010); type: functional;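 note: cells exposed to compound for about 90 hours before reading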
Calls of active or inactive are those of the source.

- Compound: "Cc1c([N+](=O)[O-])nnn1-c1cc(Cl)cc(Cl)c1"
  EC50: "> 30 µM (not active)"
- Compound: "Cc1cc(Cl)c(OCCCNCc2ccccc2)c(Br)c1"
  EC50: "14.3 µM (active)"
- Compound: "O=C(Nc1ccc2ccccc2c1)Nc1ccc2snnc2c1"
  EC50: "> 60 µM (not active)"
- Compound: "CCOC(=O)N1CCN(c2cc(N3CCN(CC)CC3)c(F)cc2[N+](=O)[O-])CC1C (configuration not stated)"
  EC50: "> 60 µM (inconclusive)"
- Compound: "Clc1ccc(C[n+]2cc(-c3ccccc3)n3c2CCCCC3)c(Cl)c1"
  EC50: "15.3 µM (active)"
- Compound: "CC1=C/C(=N\\NC(=S)NCc2ccccc2)CC1"
  EC50: "> 60 µM (not active)"
- Compound: "C#C[C@]1(O)CC[C@H]2[C@@H]3CCc4cc(OC5CCCC5)ccc4[C@H]3CC[C@@]21C [QUINESTROL]"
  EC50: "> 60 µM (not active)"

---

Biological target: Corticotropin-releasing factor receptor 2/Corticotropin-releasing factor-binding protein (Homo sapiens, UniProt P24387+Q13324)
Sequence (Q13324 whole entry): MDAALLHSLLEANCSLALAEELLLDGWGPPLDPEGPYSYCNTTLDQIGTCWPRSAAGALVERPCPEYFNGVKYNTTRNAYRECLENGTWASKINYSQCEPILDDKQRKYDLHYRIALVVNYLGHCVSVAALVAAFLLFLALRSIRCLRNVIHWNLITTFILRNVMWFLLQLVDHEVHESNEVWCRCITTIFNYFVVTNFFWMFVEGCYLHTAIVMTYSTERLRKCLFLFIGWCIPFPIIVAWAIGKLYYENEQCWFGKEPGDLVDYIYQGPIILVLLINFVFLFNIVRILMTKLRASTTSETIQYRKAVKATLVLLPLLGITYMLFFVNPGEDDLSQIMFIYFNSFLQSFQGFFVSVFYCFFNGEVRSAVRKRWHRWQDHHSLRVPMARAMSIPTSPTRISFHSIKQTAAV
Sequence (P24387 whole entry): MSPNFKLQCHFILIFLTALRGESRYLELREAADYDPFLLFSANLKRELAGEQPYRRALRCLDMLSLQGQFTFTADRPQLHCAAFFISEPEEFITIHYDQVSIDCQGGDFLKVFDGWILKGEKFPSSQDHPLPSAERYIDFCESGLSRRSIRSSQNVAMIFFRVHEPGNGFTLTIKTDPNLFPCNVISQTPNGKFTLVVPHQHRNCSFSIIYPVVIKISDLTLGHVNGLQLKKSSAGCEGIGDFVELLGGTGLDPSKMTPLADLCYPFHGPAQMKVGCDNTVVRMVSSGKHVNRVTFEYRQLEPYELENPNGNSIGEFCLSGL
Assay: Dose Response confirmation of uHTS hits for small molecule antagonists of the CRF-binding protein and CRF-R2 receptor complex.
Assay type: functional
Details: read-out: IC50_Mean
Active and inactive are the calls of the source.
Possible outcomes: label 1 = active, label 0 = inactive

- Compound: "O=[N+]([O-])c1cccc(COc2ccc(CN3CCOCC3)cc2)c1"
  Class Label: "label 0"
- Compound: "COc1ccccc1Nc1nc(N)nc(CSC(=S)N2CC(C)CC(C)C2)n1 (configuration not stated)"
  Class Label: "label 1"
- Compound: "CCc1cc2cc(C)cc(C)c2nc1SCC(=O)N1CCN(C(=O)c2ccco2)CC1"
  Class Label: "label 0"
- Compound: "COc1cc(C[C@H](C)[C@H](C)Cc2ccc3c(c2)OCO3)ccc1O"
  Class Label: "label 0"
- Compound: "CCOC(=O)/C(C#N)=C\\c1ccc2c(c1)OCO2"
  Class Label: "label 1"
- Compound: "N#CCC(=O)Nc1ccc(C(=O)OCC(=O)NNC(=O)c2cccs2)cc1"
  Class Label: "label 0"
- Compound: "CN(/N=C/c1ccc(Cl)cc1Cl)c1ncc(Cl)cc1C(F)(F)F"
  Class Label: "label 0"
- Compound: "O=C(CCc1nnc2ccc(NCc3ccco3)nn12)N1CCN(c2ccccc2F)CC1"
  Class Label: "label 0"
- Compound: "c1ccc(-c2noc(CN3CCN(c4cnccn4)CC3)n2)cc1"
  Class Label: "label 0"
- Compound: "Cc1ccc(NS(=O)(=O)c2cccc3nsnc23)cc1"
  Class Label: "label 0"
- Compound: "CC(C)c1ccc(C(c2c(O)oc3ccccc3c2=O)c2c(O)oc3ccccc3c2=O)cc1"
  Class Label: "label 1"
- Compound: "COc1ccc(S(=O)(=O)N(c2onc(C)c2Cl)S(=O)(=O)c2ccc(OC)cc2)cc1"
  Class Label: "label 0"
